Test system: 953936-095-R-J2-PDC spheroids with HUVEC/MSC, viability
method-summary: Anticancer human tumor 953936-095-R-J2-PDC patient-derived cervical squamous cell carcinoma cell line growth inhibition [PI3K]
particulars: second compound 0.01 µM; first compound 0.001 µM; hits give low values

>  <compound>
Cn1ncnc1[C@H]1c2n[nH]c(=O)c3cc(F)cc(c23)N[C@@H]1c1ccc(F)cc1 + COc1c(OCCCN2CCOCC2)ccc2c3n(c(=NC(=O)c4cnc(N)nc4)nc12)CCN3

>  <viability, T/C>
85.1%

$$$$
>  <compound>
CC(C)n1nc(-c2ccc3oc(N)nc3c2)c2c(N)ncnc21 + COc1c(OCCCN2CCOCC2)ccc2c3n(c(=NC(=O)c4cnc(N)nc4)nc12)CCN3

>  <viability, T/C>
64.8%

$$$$
>  <compound>
CC(=O)c1c(C)c2cnc(Nc3ccc(N4CCNCC4)cn3)nc2n(C2CCCC2)c1=O + COc1c(OCCCN2CCOCC2)ccc2c3n(c(=NC(=O)c4cnc(N)nc4)nc12)CCN3

>  <viability, T/C>
77.9%

$$$$
>  <compound>
CC(C)n1nc(-c2ccc3oc(N)nc3c2)c2c(N)ncnc21 + CC(Nc1ccc2c(c1)OCCn1cc(N3C(=O)OCC3C(F)F)nc1-2)C(N)=O

>  <viability, T/C>
88.8%

$$$$
>  <compound>
CC(=O)c1c(C)c2cnc(Nc3ccc(N4CCNCC4)cn3)nc2n(C2CCCC2)c1=O + CC(Nc1ccc2c(c1)OCCn1cc(N3C(=O)OCC3C(F)F)nc1-2)C(N)=O

>  <viability, T/C>
87.5%

$$$$
>  <compound>
Cn1ncnc1[C@H]1c2n[nH]c(=O)c3cc(F)cc(c23)N[C@@H]1c1ccc(F)cc1 + CC(Nc1ccc2c(c1)OCCn1cc(N3C(=O)OCC3C(F)F)nc1-2)C(N)=O

>  <viability, T/C>
106%

$$$$

====

Test system: 953936-095-R-J2-PDC spheroids with HUVEC/MSC, viability
method-summary: Anticancer human tumor 953936-095-R-J2-PDC cell line growth inhibition [PI3K];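 further: spheroids exposed to compounds for seven days before read-out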
particulars: compound 0.0316 µM; hits give low values

>  <molecule>
Cc1nc(NC(=O)N2CCCC2C(N)=O)sc1-c1ccnc(C(C)(C)C(F)(F)F)c1 (configuration not stated)

>  <viability, T/C>
90% [middle of 8 runs]

$$$$
>  <molecule>
CC(Cn1ccc(-c2ccc(C#N)c(Cl)c2)n1)NC(=O)c1cc(C(C)O)[nH]n1 (configuration not stated)

>  <viability, T/C>
91.2% [middle of 4 runs]

$$$$
>  <molecule>
C#Cc1c(F)ccc2cc(O)cc(-c3ncc4c(N5CC6CCC(C5)N6)nc(OCC56CCCN5CC(F)C6)nc4c3F)c12 (configuration not stated)

>  <viability, T/C>
115% [middle of 4 runs]

$$$$
>  <molecule>
CC(Nc1ccc2c(c1)OCCn1cc(N3C(=O)OCC3C(F)F)nc1-2)C(N)=O (configuration not stated)

>  <viability, T/C>
75.9% [middle of 8 runs]

$$$$
>  <molecule>
CC(Nc1ncnc2nc[nH]c12)c1cc2cccc(Cl)c2c(=O)n1-c1ccccc1 (configuration not stated)

>  <viability, T/C>
97.8% [middle of 8 runs]

$$$$
>  <molecule>
CC(C)NCC(C(=O)N1CCN(c2ncnc3c2C(C)CC3O)CC1)c1ccc(Cl)cc1 (configuration not stated)

>  <viability, T/C>
92.7% [middle of 4 runs]

$$$$
>  <molecule>
COc1c(OCCCN2CCOCC2)ccc2c3n(c(=NC(=O)c4cnc(N)nc4)nc12)CCN3

>  <viability, T/C>
39.5% [middle of 8 runs]

$$$$
>  <molecule>
CC(C)n1nc(-c2ccc3oc(N)nc3c2)c2c(N)ncnc21

>  <viability, T/C>
50.6% [middle of 4 runs]

$$$$
>  <molecule>
CCCS(=O)(=O)Nc1ccc(F)c(C(=O)c2c[nH]c3ncc(-c4ccc(Cl)cc4)cc23)c1F

>  <viability, T/C>
94.5% [middle of 4 runs]

$$$$
>  <molecule>
Cn1ncc(Cl)c1-c1cc(C(=O)NC(CN)Cc2cccc(F)c2)sc1Cl (configuration not stated)

>  <viability, T/C>
93.5% [middle of 4 runs]

$$$$
>  <molecule>
CCN1CCN(Cc2ccc(Nc3ncc(F)c(-c4cc(F)c5nc(C)n(C(C)C)c5c4)n3)nc2)CC1

>  <viability, T/C>
93.1% [middle of 4 runs]

$$$$
>  <molecule>
CC1(C)CCC(CN2CCN(c3ccc(C(=O)NS(=O)(=O)c4ccc(NCC5CCOCC5)c([N+](=O)[O-])c4)c(Oc4cnc5[nH]ccc5c4)c3)CC2)=C(c2ccc(Cl)cc2)C1

>  <viability, T/C>
96.8% [middle of 4 runs]

$$$$

====

Tested on: 953936-095-R-J2-PDC spheroids with HUVEC/MSC, viability
method-summary: Anticancer human tumor 953936-095-R-J2-PDC cell line growth inhibition [PI3K];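 further: spheroids exposed to compounds for seven days before read-out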
particulars: second compound 0.00316 µM; first compound 0.1 µM; hits give low values

>  <molecule>
CC(C)n1nc(-c2ccc3oc(N)nc3c2)c2c(N)ncnc21 + CC(Nc1ccc2c(c1)OCCn1cc(N3C(=O)OCC3C(F)F)nc1-2)C(N)=O

>  <viability, T/C, %>
15.5

$$$$
>  <molecule>
CC(C)n1nc(-c2ccc3oc(N)nc3c2)c2c(N)ncnc21 + COc1c(OCCCN2CCOCC2)ccc2c3n(c(=NC(=O)c4cnc(N)nc4)nc12)CCN3

>  <viability, T/C, %>
14.4

$$$$
>  <molecule>
CNC(=O)c1ccc(N2C(=S)N(c3ccc(C#N)c(C(F)(F)F)c3)C(=O)C2(C)C)cc1F + CC(Nc1ccc2c(c1)OCCn1cc(N3C(=O)OCC3C(F)F)nc1-2)C(N)=O

>  <viability, T/C, %>
103

$$$$

====

Tested on: 953936-095-R-J2-PDC spheroids with HUVEC/MSC, viability
method-summary: Anticancer human tumor 953936-095-R-J2-PDC cell line growth inhibition [PI3K];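 further: spheroids exposed to compounds for seven days before read-out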
particulars: second compound 0.0316 µM; first compound 10 µM; hits give low values
Listing of entries alongside the reported viability, T/C.

>  <compound>
CC1(C)CCC(Nc2ncc(C(F)(F)F)c(-c3c[nH]c4c(P(C)(C)=O)c(C#N)ccc34)n2)CN1 (stereo not given) + CC(Nc1ccc2c(c1)OCCn1cc(N3C(=O)OCC3C(F)F)nc1-2)C(N)=O

>  <system-tested>
953936-095-R-J2-PDC spheroids with HUVEC/MSC, viability

>  <viability, T/C (%)>
4.63

$$$$
>  <compound>
CC(Cn1ccc(-c2ccc(C#N)c(Cl)c2)n1)NC(=O)c1cc(C(C)O)[nH]n1 (stereo not given) + CC(Nc1ncnc2nc[nH]c12)c1cc2cccc(Cl)c2c(=O)n1-c1ccccc1

>  <system-tested>
953936-095-R-J2-PDC spheroids with HUVEC/MSC, viability

>  <viability, T/C (%)>
96

$$$$
>  <compound>
CCCS(=O)(=O)Nc1ccc(F)c(C(=O)c2c[nH]c3ncc(-c4ccc(Cl)cc4)cc23)c1F + CC(Nc1ccc2c(c1)OCCn1cc(N3C(=O)OCC3C(F)F)nc1-2)C(N)=O

>  <system-tested>
953936-095-R-J2-PDC spheroids with HUVEC/MSC, viability

>  <viability, T/C (%)>
3.87

$$$$
>  <compound>
CC1(C)CCC(CN2CCN(c3ccc(C(=O)NS(=O)(=O)c4ccc(NCC5CCOCC5)c([N+](=O)[O-])c4)c(Oc4cnc5[nH]ccc5c4)c3)CC2)=C(c2ccc(Cl)cc2)C1 + Cc1nc(NC(=O)N2CCCC2C(N)=O)sc1-c1ccnc(C(C)(C)C(F)(F)F)c1

>  <system-tested>
953936-095-R-J2-PDC spheroids with HUVEC/MSC, viability

>  <viability, T/C (%)>
25.2

$$$$
>  <compound>
C#Cc1c(F)ccc2cc(O)cc(-c3ncc4c(N5CC6CCC(C5)N6)nc(OCC56CCCN5CC(F)C6)nc4c3F)c12 (stereo not given) + CC(Nc1ccc2c(c1)OCCn1cc(N3C(=O)OCC3C(F)F)nc1-2)C(N)=O

>  <system-tested>
953936-095-R-J2-PDC spheroids with HUVEC/MSC, viability

>  <viability, T/C (%)>
45.2

$$$$
>  <compound>
CNC(=O)c1ccc(N2C(=S)N(c3ccc(C#N)c(C(F)(F)F)c3)C(=O)C2(C)C)cc1F + Cc1nc(NC(=O)N2CCCC2C(N)=O)sc1-c1ccnc(C(C)(C)C(F)(F)F)c1

>  <system-tested>
953936-095-R-J2-PDC spheroids with HUVEC/MSC, viability

>  <viability, T/C (%)>
79.7

$$$$
>  <compound>
C[C@@H](NC(=O)c1ncnc(N)c1Cl)c1ncc(C(=O)Nc2cc(C(F)(F)F)c(Cl)cn2)s1 + Cc1nc(NC(=O)N2CCCC2C(N)=O)sc1-c1ccnc(C(C)(C)C(F)(F)F)c1

>  <system-tested>
953936-095-R-J2-PDC spheroids with HUVEC/MSC, viability

>  <viability, T/C (%)>
92.1

$$$$
>  <compound>
CCCS(=O)(=O)Nc1ccc(F)c(C(=O)c2c[nH]c3ncc(-c4ccc(Cl)cc4)cc23)c1F + CC(Nc1ncnc2nc[nH]c12)c1cc2cccc(Cl)c2c(=O)n1-c1ccccc1

>  <system-tested>
953936-095-R-J2-PDC spheroids with HUVEC/MSC, viability

>  <viability, T/C (%)>
0.75

$$$$
>  <compound>
CC(Cn1ccc(-c2ccc(C#N)c(Cl)c2)n1)NC(=O)c1cc(C(C)O)[nH]n1 (stereo not given) + Cc1nc(NC(=O)N2CCCC2C(N)=O)sc1-c1ccnc(C(C)(C)C(F)(F)F)c1

>  <system-tested>
953936-095-R-J2-PDC spheroids with HUVEC/MSC, viability

>  <viability, T/C (%)>
107

$$$$
>  <compound>
CNC(=O)c1ccc(N2C(=S)N(c3ccc(C#N)c(C(F)(F)F)c3)C(=O)C2(C)C)cc1F + COc1c(OCCCN2CCOCC2)ccc2c3n(c(=NC(=O)c4cnc(N)nc4)nc12)CCN3

>  <system-tested>
953936-095-R-J2-PDC spheroids with HUVEC/MSC, viability

>  <viability, T/C (%)>
37.3

$$$$
